Below, each of the compounds is paired with its reported Cmax value.
- protocol-summary: Single dose oral pharmacokinetic study
- Set-up: species or system mice
- measurement-parameters: mouse, in vivo, po, 30 mg/kg
Write down the numeric answer in ng/mL and omit the unit.

Suppose we examine the compound C=C(C)[C@@H]1CC[C@]2(C(=O)N3CCC[C@H]3c3nc(-c4ccccc4)cn3CCN3CCCC3)CC[C@]3(C)[C@H](CC[C@@H]4[C@@]5(C)CC[C@H](OC(=O)[C@H]6C[C@@H](C(=O)O)C6(C)C)C(C)(C)[C@@H]5CC[C@]43C)[C@@H]12 ; what Cmax value has been reported?
4640

Suppose we examine the compound C=C(C)[C@@H]1CC[C@]2(C(=O)N3CCC[C@H]3c3nc4ccccc4n3CCN3CCCC3)CC[C@]3(C)[C@H](CC[C@@H]4[C@@]5(C)CC[C@H](OC(=O)[C@H]6C[C@@H](C(=O)O)C6(C)C)C(C)(C)[C@@H]5CC[C@]43C)[C@@H]12 ; what Cmax value has been reported?
14800

Suppose we examine the compound C=C(C)[C@@H]1CC[C@]2(C(=O)N3CCC[C@H]3c3nc(-c4ccccc4)cn3C)CC[C@]3(C)[C@H](CC[C@@H]4[C@@]5(C)CC[C@H](OC(=O)CC(C)(C)C(=O)O)C(C)(C)[C@@H]5CC[C@]43C)[C@@H]12 ; what Cmax value has been reported?
15300

Suppose we examine the compound C=C(C)[C@@H]1CC[C@]2(C(=O)N3CCC[C@H]3c3nc(-c4ccccc4)cn3CCOC)CC[C@]3(C)[C@H](CC[C@@H]4[C@@]5(C)CC[C@H](OC(=O)CC(C)(C)C(=O)O)C(C)(C)[C@@H]5CC[C@]43C)[C@@H]12 ; what Cmax value has been reported?
13000
